tested on: SF-295; assay: NCI tumour cell line growth inhibition, 48 h
Active and inactive are the calls of the source. No stated cut-off is given here; in the data, active = GI50 up to about 1.1 µM and inactive = higher. Where a SMILES comes first, the peptide text is derived from it. The star is where a group is joined. Boc = CC(C)(C)OC(=O)*
Outcomes: YES for active, NO for inactive

• C1CN(c2nc3c(nnc4nc(N5CCOCC5)sc43)s2)CCO1 = NO
• CC(NC(=O)C1CCCN1C(=O)CNC(=O)OC(C)(C)C)C(=O)O (stereo not drawn) (Boc-Gly-Pro-Ala-OH; configuration not given here) = NO
• COc1ccc(C2C(C=O)C(N3CCN(C)CC3)=Nc3nc4ccccc4n32)cc1 (stereo unspecified) = NO
• CC(C)=CC1CC(=[N+]=[N-])C(=O)C1(C)C (stereo unspecified) = NO
• O=c1[nH]c(=O)n(C2CC(O)C(CO)O2)cc1C#Cc1ccc(C(F)(F)F)cc1 (stereo unspecified) = NO
• O=C1c2scnc2-c2nccc3c2c1nc1ccccc13 = NO
• O=C(Nc1cccc([N+](=O)[O-])c1)c1nnn(-c2cccc([N+](=O)[O-])c2)c1O = NO
• O=C1c2ccccc2C(=O)c2sc(Nc3ccccc3Cl)nc21 = NO
• CN(C)CCNc1ccc(CO)c2sc3ccc(O)cc3c(=O)c12 = YES
• O=C(Nc1ccccc1-c1n[nH]c(S)nc1=O)C(F)(F)F = NO
• COC(=O)c1c(O)ccc2c1c1c(n2Cc2cc(OC)cc(OC)c2)C(=O)c2ccccc2C1 = NO
• Cc1ccc([N+](=O)[O-])cc1S(=O)(=O)Nc1ccc(C2=NOC(c3ccccc3)C2)cc1 (stereo unspecified) = NO
• COc1cc(NP(=O)(Oc2ccccc2)Oc2ccccc2)ccc1Nc1c2ccccc2nc2c1[nH]c1ccccc12 = YES
• CCN1C(=O)N2C(OC)c3ccccc3C(Br)C2(OC)C1=O (stereo unspecified) = NO
• CN1CCC/C1=N\C#N = NO
• OCC1OC(NCCNCCNC2OC(CO)C(O)C(O)C2O)C(O)C(O)C1O (stereo unspecified) = NO
• COc1ccc(OC)c(C2CCc3nc4nc(N)nc(N)c4cc3C2)c1 (stereo unspecified) = NO
• CCOP(=O)(OCC)/C(=C\n1ccc(=O)[nH]c1=S)C(=O)OC = NO
• C/C(CC(=O)Nc1cc(Cl)c(Cl)cc1Cl)=N\NC(N)=O = NO
• Nc1ccc(Cn2ccc3c4c(N)nc(N)nc4ccc32)cc1 = YES
• COc1ccc(/C=C2\CCCC(CN(C)C)C2=O)cc1 (stereo unspecified) = NO

====

test system: BT-549; assay: NCI tumour cell line growth inhibition, 48 h
The source made the active and inactive calls. No stated cut-off is given here; in the data, active = GI50 up to about 1.1 µM and inactive = higher.
measured.endpoint: GI50

• [N-]=[N+]=NC[C@H]1OCO[C@H](CN=[N+]=[N-])[C@H]2OCCOCCOc3ccccc3OCCOCCO[C@@H]21 = > 100 µM (inactive)
• COC1CC(C)(N)C(O)C(C)O1 (stereo unspecified) = > 100 µM (inactive)
• CN(O)C(=O)c1ccc(OCc2cccc(Cl)c2)cc1 = 22.8 µM (inactive)
• CCOC(=O)[C@@]12C[C@](/C=C/OC)(O[Si](C)(C)C)[C@@]13c1cc(OC)c(OC)cc1CCN3C(=O)C2=O = > 100 µM (inactive)
• CC1CC(C)[C@H](O)C([C@H](O)CC2CC(=O)N(C)C(=O)C2)C1 (stereo partly specified) = > 100 µM (inactive)
• S=C1SSC2N=CC=CC12 (stereo unspecified) = > 100 µM (inactive)

====

Recorded GI50 values for a group of compounds are listed next.
system: U-251; assay: NCI tumour cell line growth inhibition, 48 h
The source made the active and inactive calls. No stated cut-off is given here; in the data, active = GI50 up to about 1.1 µM and inactive = higher.
measured.endpoint: GI50

• CC(C)[Si]1(C(C)C)OCC2OC(N3C(=O)NC(=O)C[C@@H]3C(O)c3ccccc3)CC2O[Si](C(C)C)(C(C)C)O1 (stereo partly specified) = 3.24 µM (inactive)
• CN(C)CCN(C)CC1COC(C)(C)O1 (stereo unspecified) = > 100 µM (inactive)
• O=S(=O)(O)c1ccc(Nc2ccnc3ccccc23)cc1 = > 100 µM (inactive)
• OC(Cc1ccccc1)(Cc1ccccc1)c1ccccc1 = 18.1 µM (inactive)
• [O-]c1c2c(nn1-c1ccc(F)cc1)c1ccccc1c[n+]2Cc1ccccc1 = 16.4 µM (inactive)
• CC(C)(C)c1ccc(OCCOCCOc2ccc(C(C)(C)C)cc2S(N)(=O)=O)c(S(N)(=O)=O)c1 = > 100 µM (inactive)
• O=C1CC(CC(O)[C@@H]2CCCC[C@@H]2O)CC(=O)N1c1ccccc1 (stereo partly specified) = > 100 µM (inactive)
• COc1ccc(OC)c(CCc2cc(OC)ccc2OC)c1 = 4.81 µM (inactive)
• C[C@]12CCC(=O)C=C1CC[C@@H]1C2CC[C@]2(C)Nc3[nH]ncc3CC12 (stereo partly specified) = > 100 µM (inactive)
• OCCNCNc1nc(NCNCCO)nc(N(CNCCO)CNCCO)n1 = 21.1 µM (inactive)
• O=[N+]([O-])c1ccc(/C=C/c2ccc(/N=N/c3ccc(/C=C/c4ccc([N+](=O)[O-])cc4S(=O)(=O)O)c(S(=O)(=O)O)c3)cc2S(=O)(=O)O)c(S(=O)(=O)O)c1 = > 100 µM (inactive)
• CC(=O)N/N=C1\CC(C)(C)C2CCC1C2 (stereo unspecified) = > 100 µM (inactive)
• CCCC1(CC(=O)O)OCCc2c1[nH]c1ccccc21 (stereo unspecified) = > 100 µM (inactive)
• O=C1/C(=C\c2ccccc2)c2ccccc2N1Cc1ccccc1 = 8.69 µM (inactive)
• O=C(N/N=C/c1ccc(O)cc1)NNCCO = > 100 µM (inactive)
• CC(C)OP(=O)(CCCCCCCCC/C=C/c1ccc2c(c1)OCCOCCOCCOCCO2)OC(C)C = 2.75 µM (inactive)
• CCOC(=O)CC[C@H](NC(=O)N[C@H](C)c1ccccc1)C(=O)OCC = 39.8 µM (inactive)
• CC1CCCCNC1=S (stereo unspecified) = > 10 µM (inactive)
• CC1CC(C)[C@H](O)C([C@H](O)CC2CC(=O)N(C)C(=O)C2)C1 (stereo partly specified) = > 100 µM (inactive)
• O=C1CC2C(=O)C1C(C(=O)O)C2C(=O)O (stereo unspecified) = > 100 µM (inactive)
• CC(C)=CC1CC(=[N+]=[N-])C(=O)C1(C)C (stereo unspecified) = > 100 µM (inactive)

====

test system: NCI/ADR-RES; assay: NCI tumour cell line growth inhibition, 48 h
The source made the active and inactive calls. No stated cut-off is given here; in the data, active = GI50 up to about 1.1 µM and inactive = higher.
Recorded GI50 values for a group of molecules are listed next.
measured.endpoint: GI50

- Oc1c(O)c(Cc2ccccc2)c(Cc2ccccc2)c(Cc2ccccc2)c1Cc1ccccc1: > 10 µM (inactive)
- COc1cc([C@@H]2OC[C@@H]3C(c4cc(OC)c5c(c4)OCO5)OC[C@@H]32)cc(OC)c1OC (stereo not given in full): 31.6 µM (inactive)
- Brc1ccc2c([C@H]3CN[C@@H](c4c[nH]c5cc(Br)ccc45)CN3)c[nH]c2c1: 4.9 µM (inactive)
- CC(C)c1c(O)ccc2c1CCC1C(C)(C)CCCC21C (stereo not given): 16.9 µM (inactive)
- O=S(=O)(SC1=NCCN1)c1cccc2ccccc12: 26.5 µM (inactive)
- Cc1cccc(-c2cc(=S)c3cc(N4CCCC4)ccc3[nH]2)c1: > 100 µM (inactive)
- CN(C)CCNc1ccc2c(=O)n(CCN(C)C)c(=O)n3c4ccccc4c(=O)c1c23: 0.14 µM (active)
- COc1cc(C2S/C(=C/c3ccccc3)C(=O)N2c2cccc([N+](=O)[O-])c2)cc(OC)c1OC (stereo not given): 42.2 µM (inactive)
- Cc1c2c(OCC(O)CN3CCN(c4ccccc4)CC3)nn(C)c(=O)c2c(C)n1-c1ccccc1 (stereo not given): 24.6 µM (inactive)
- C[C@@H](Br)[C@@H]1CC[C@H]2c3[nH]c4ccccc4c3CCN2C1: 20.2 µM (inactive)

====

test system: HL-60; assay: NCI tumour cell line growth inhibition, 48 h
Activity calls are given as the source filed them. Rule as the data show it: active = GI50 up to about 1.1 µM and inactive = higher.
Outcomes: 1 (yes) (active), 0 (no) (inactive)

• Cc1ccc([N+](=O)[O-])cc1S(=O)(=O)Nc1ccc(C2=NOC(c3ccccc3)C2)cc1 (configuration not stated) = 0 (no)
• COC1OC(C)C(OC(=O)C(C)(C)C)C(OS(=O)(=O)c2ccc(C)cc2)C1OS(=O)(=O)c1ccc(C)cc1 (configuration not stated) = 0 (no)
• O=C(c1ccccc1)c1nnn(Cc2cccc(Cl)c2)c1C(=O)c1ccccc1 = 0 (no)
• O=C1/C(=C/c2ccccc2)CN(C(=O)OCc2ccccc2)C/C1=C\c1ccccc1 = 0 (no)
• Cn1c2c3ccc(Cl)cc3nc-2c(Cl)c2ccccc21 = 0 (no)
• O=C1O/C(=C\C=C\CO)C=C1/C=C/CO [LISSOCLINOLIDE] = 0 (no)
• CC(NNC(=O)c1cc[n+]([BH2-]C#N)cc1)c1cccc(F)c1 (configuration not stated) = 0 (no)
• CN1CCOC(c2ccccc2)O1 (configuration not stated) = 0 (no)
• Cn1c(=O)c2c(nc3n2C(CCl)CO3)n(C)c1=O (configuration not stated) = 0 (no)
• C[O+]=C1C=CC(=C2SC(c3ccccc3)(c3ccccc3)c3ccccc32)C=C1.[O-][Cl+3]([O-])([O-])[O-] = 0 (no)
• CC(C)(C)c1ccc2c(c1)OCc1n[nH]c(n1)COc1cc(C(C)(C)C)ccc1OCCOCCO2 = 0 (no)
• Cc1ccc(NC(=O)CC(=O)n2nc(C)c(/N=N/c3cccc(C)c3)c2C)cc1 = 0 (no)
• Cn1cnc2c1c(=O)n(CCNCCO)c(=O)n2C = 0 (no)
• Cc1ncc(CBr)c(CBr)c1O = 0 (no)
• O=C1c2ccccc2-c2nc3ccc(O)cc3n21 = 0 (no)
• CCOC(=O)/N=C(\N)SCc1ccccc1 = 0 (no)
• CC(C)Oc1c(-c2c(OC(C)C)c(=O)c2=O)c(=O)c1=O = 0 (no)
• NNC(=O)c1c(SCc2ccccc2)nc2c3ccccc3ccn12 = 0 (no)
• O=C1c2ccccc2C(=O)c2sc(Nc3ccccc3Cl)nc21 = 1 (yes)
• CC(C)OP(=O)(CCCCCCCCC/C=C/c1ccc2c(c1)OCCOCCOCCOCCO2)OC(C)C = 0 (no)
• COC(=O)C1=C(\O)C[C@@]2(C)CC[C@@H](C(=O)OC)C2C/C=C\1C(=O)OC (some centres not stated) = 0 (no)
• O=C(Nc1cccc([N+](=O)[O-])c1)c1nnn(-c2cccc([N+](=O)[O-])c2)c1O = 0 (no)

Data origin: ChEMBL document CHEMBL1201862
